Assay: physchem
Details: 25 °C, pH 6, aqueous buffer
REPORTED PROPERTY: solubility

> print(dat)
                                   molecule    measured
1  CC1(C)Nc2cccc3c(/N=N/c4ccc(/N=N/c5ccccc5)c5ccccc45)ccc(c23)N1  ≤ 0.631 nM
2  Cc1cc(Br)c(Nc2ccc(O)c3c2C(=O)c2ccccc2C3=O)c(Br)c1    0.794 nM

Turning now to a further compound:
Q. Supply measured solubility of Cc1cccc(Nc2cccc3c2C(=O)c2cccc(Nc4cccc(C)c4)c2C3=O)c1 in your reply.
A. ≤ 0.631 nM

----------
Test: physchem
Conditions: 25 °C, pH 11, aqueous buffer
REPORTED PROPERTY: solubility

Q. Supply measured solubility of Cc1cc(Br)c(Nc2ccc(O)c3c2C(=O)c2ccccc2C3=O)c(Br)c1 in your reply.
A. 0.813 µM
